test system: Human cytomegalovirus (HCMV) strain (AD169); experiment: Plaque reduction assay against human cytomegalovirus; assay type: cell-based; parameters: unit not given here; conditions: HCMV strain AD169 in MRC-5 cells
Hi there, I'd appreciate the recorded CMV ID50 for every entry that follows.

Previously resolved entries follow.
COMPOUND	CMV ID50
Nc1ncnc2c1ncn2C[C@@H](CO)OCP(=O)(O)O [reference compound]	0.13
Nc1nc2c(ncn2CCCOCP(=O)(O)O)c(=O)[nH]1	6.0
Nc1nc2c(ncn2COC(CO)CO)c(=O)[nH]1 [9-(1,3-Dihydroxypropoxymethyl)guanine, reference compound]	1.2
Nc1ncc2ncn(CCOCP(=O)(O)O)c2n1	<0.032

Here is the next item to consider.
# input Look up Human cytomegalovirus (HCMV) strain (AD169) data: CMV ID50 of CCOP(=O)(O)COCCn1cnc2c(=O)[nH]c(N)nc21 , then report it.
# output 0.23
